molecular target: TDO (Homo sapiens, UniProt P48775); assay: A172 Kynurenine cell based assay; design: This assay utilised cancer cells which expressed either TDO or IDO; endogenous in cells; host or cells: A172 (human glioblastoma); settings: A172 (human glioblastoma) cells, 500 μM L-tryptophan, 48 hours, kynurenine by Erhlich's reagent
Sequence (P48775 whole entry): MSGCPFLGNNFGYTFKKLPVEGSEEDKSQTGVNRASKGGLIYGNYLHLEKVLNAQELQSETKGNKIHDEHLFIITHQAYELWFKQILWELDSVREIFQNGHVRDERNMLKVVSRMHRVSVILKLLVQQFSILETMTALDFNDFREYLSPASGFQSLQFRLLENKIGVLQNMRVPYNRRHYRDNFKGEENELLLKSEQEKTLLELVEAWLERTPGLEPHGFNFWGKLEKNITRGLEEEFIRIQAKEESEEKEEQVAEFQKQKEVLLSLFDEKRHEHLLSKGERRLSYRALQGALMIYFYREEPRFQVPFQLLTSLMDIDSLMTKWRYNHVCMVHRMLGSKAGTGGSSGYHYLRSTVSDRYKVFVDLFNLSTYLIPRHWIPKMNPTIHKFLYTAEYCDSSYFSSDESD
assay_metric: A172 Kynurenine cell based assay pIC50

| compound | endpoint_result |
| --- | --- |
| O=C(Nc1cccc2cnccc12)c1ccccc1 | +/− (+/− = pIC50 <4.00) |
| O=S(=O)(NC1CCCc2cnccc21)c1ccc(Cl)cc1 (stereo not shown) | +/− (+/− = pIC50 <4.00) |
| CC(=O)Nc1ccc(S(=O)(=O)Nc2cccc3cnccc23)cc1 | +/− (+/− = pIC50 <4.00) |
| O=S(=O)(Nc1ccc(Cl)cc1)c1cccc2cnccc12 | + (+ = pIC50 4.00-4.49) |
| CC(C)S(=O)(=O)Nc1cccc2cnccc12 | + (+ = pIC50 4.00-4.49) |
| CC(C)Oc1ccc(S(=O)(=O)Nc2cccc3ccncc23)cc1 | + (+ = pIC50 4.00-4.49) |
| Cc1ccc(S(=O)(=O)Nc2cccc3cnccc23)cc1 | +/− (+/− = pIC50 <4.00) |
| O=S(=O)(Nc1cccc2ccncc12)c1ccccc1 | +/− (+/− = pIC50 <4.00) |
| N#Cc1ccccc1S(=O)(=O)Nc1cccc2cnccc12 | +/− (+/− = pIC50 <4.00) |

* * *

target: TDO (Homo sapiens, UniProt P48775); assay: A172 Kynurenine cell based assay; design: This assay utilised cancer cells which expressed either TDO or IDO; endogenous in cells; host or cells: A172 (human glioblastoma); conditions: A172 (human glioblastoma) cells, 500 μM L-tryptophan, 48 hours, kynurenine by Erhlich's reagent
assay_metric: A172 Kynurenine cell based assay pIC50

| compound | assay_metric | endpoint_result |
| --- | --- | --- |
| CN(c1ccccc1)S(=O)(=O)c1cccc2cnccc12 | A172 Kynurenine cell based assay pIC50 | + (+ = pIC50 4.00-4.49) |
| COc1cccc(S(=O)(=O)Nc2cccc3cnccc23)c1 | A172 Kynurenine cell based assay pIC50 | +++ (+++ = pIC50 ≥5.50) |
| O=C(Nc1cncc2ccccc12)c1ccccc1 | A172 Kynurenine cell based assay pIC50 | +/− (+/− = pIC50 <4.00) |
| O=C(Nc1ccc2cnccc2c1)c1ccccc1 | A172 Kynurenine cell based assay pIC50 | +/− (+/− = pIC50 <4.00) |
| Cc1cc2c(NS(=O)(=O)c3ccccc3)cccc2nn1 | A172 Kynurenine cell based assay pIC50 | + (+ = pIC50 4.00-4.49) |
| CC(=O)Nc1cc2c(NS(=O)(=O)c3ccccc3)cccc2cn1 | A172 Kynurenine cell based assay pIC50 | +/− (+/− = pIC50 <4.00) |
| CC(C)CS(=O)(=O)N(c1cccc2cnccc12)S(=O)(=O)CC(C)C | A172 Kynurenine cell based assay pIC50 | +/− (+/− = pIC50 <4.00) |
| COc1ccc(S(=O)(=O)Nc2cccc3cnccc23)cc1OC | A172 Kynurenine cell based assay pIC50 | +/− (+/− = pIC50 <4.00) |
| CC(=O)N1CCN(c2cccc3cnccc23)CC1 | A172 Kynurenine cell based assay pIC50 | +/− (+/− = pIC50 <4.00) |
| O=S(=O)(Nc1cccc2ccncc12)c1ccc(-c2ccccc2)cc1 | A172 Kynurenine cell based assay pIC50 | + (+ = pIC50 4.00-4.49) |
| Cc1cccc(S(=O)(=O)Nc2cccc3cnccc23)c1 | A172 Kynurenine cell based assay pIC50 | +++ (+++ = pIC50 ≥5.50) |
| O=S(=O)(NC1CCCc2cnccc21)c1ccc(-c2ccccc2)cc1 (stereo not shown) | A172 Kynurenine cell based assay pIC50 | +/− (+/− = pIC50 <4.00) |
| O=S(=O)(Nc1cccc2cnccc12)c1cccc2cccnc12 | A172 Kynurenine cell based assay pIC50 | +/− (+/− = pIC50 <4.00) |
| O=S(=O)(Nc1cccc2cnccc12)c1ccc(F)cc1 | A172 Kynurenine cell based assay pIC50 | +++ (+++ = pIC50 ≥5.50) |
| O=S(=O)(Nc1cccc2cnccc12)c1ccc2c(c1)OCCO2 | A172 Kynurenine cell based assay pIC50 | +++ (+++ = pIC50 ≥5.50) |
| O=S(=O)(Nc1cccc2cnccc12)c1ccc(F)cc1F | A172 Kynurenine cell based assay pIC50 | +/− (+/− = pIC50 <4.00) |
| CC(C)Oc1ccc(S(=O)(=O)Nc2cccc3cnccc23)cc1 | A172 Kynurenine cell based assay pIC50 | +/− (+/− = pIC50 <4.00) |
| O=S(=O)(Nc1cc(Cl)cc2cnccc12)c1ccc(Cl)cc1 | A172 Kynurenine cell based assay pIC50 | +/− (+/− = pIC50 <4.00) |
| Cc1cc2c(NC(=O)c3ccc4ccccc4n3)cccc2nn1 | A172 Kynurenine cell based assay pIC50 | + (+ = pIC50 4.00-4.49) |
| CS(=O)(=O)c1ccc(S(=O)(=O)Nc2cccc3cnccc23)cc1 | A172 Kynurenine cell based assay pIC50 | +/− (+/− = pIC50 <4.00) |
| CC(C)Oc1ccc(S(=O)(=O)Nc2cc(Cl)cc3cnccc23)cc1 | A172 Kynurenine cell based assay pIC50 | +/− (+/− = pIC50 <4.00) |
| Nc1nccc2c(NS(=O)(=O)c3ccccc3)cccc12 | A172 Kynurenine cell based assay pIC50 | + (+ = pIC50 4.00-4.49) |
